Biological target: UniProt Q16539
Assay: p38 MAP Kinase Assay (33P incorporation into myelin basic protein, filter plate)
Format: biochemical
Details: Table 2; MKK6-activated p38, MBP substrate, 50 minutes
The molecules listed here are annotated with their IC50.

MOL_SMILES	MEASURED
CC(C)(C)c1csc(NC(=O)Nc2ccc(F)c(COc3cnccn3)c2)n1	< 20 µM
CC(C)(CO)NC(=O)c1cnc(OCc2c(Cl)cccc2Cl)cn1	< 20 µM

### Prompt Find the recorded IC50 belonging to O=C(Cn1ccnc1)Nc1cnc(OCc2c(Cl)cccc2Cl)cn1 and report it.
### Response < 20 µM

====

Below, each of the molecules is paired with its reported pIC50 value.
Target: p38 MAP kinase (Homo sapiens)
Sequence (Q16539 whole entry): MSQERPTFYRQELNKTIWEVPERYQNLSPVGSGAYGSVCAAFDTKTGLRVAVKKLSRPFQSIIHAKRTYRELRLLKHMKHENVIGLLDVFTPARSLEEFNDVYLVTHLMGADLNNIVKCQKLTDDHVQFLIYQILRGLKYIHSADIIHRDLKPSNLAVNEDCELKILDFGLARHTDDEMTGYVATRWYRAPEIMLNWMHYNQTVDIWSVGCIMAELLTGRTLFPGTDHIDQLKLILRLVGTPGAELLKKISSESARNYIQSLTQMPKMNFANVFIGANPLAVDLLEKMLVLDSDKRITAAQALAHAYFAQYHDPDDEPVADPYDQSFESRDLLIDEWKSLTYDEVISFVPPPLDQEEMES
Assay: p38 MAP Kinase Assay (33P incorporation into myelin basic protein, filter plate)
Assay type: biochemical
Settings: Table 2; MKK6-activated p38, MBP substrate, 50 minutes
pIC50: −log10 of the molar value.

// known answers, use as guide
MOL_SMILES	pIC50
NS(=O)(=O)CCNC(=O)c1cnc(OCc2c(Cl)cccc2Cl)cn1	> 3.00
O=C(Nc1ccc(F)c(COc2cnccn2)c1)Nc1cc(-c2ccccc2)nn1-c1ccccc1	> 5.70

### Prompt Please look up its pIC50: Clc1cccc(Cl)c1COc1cnc(N2CCOCC2)cn1
### Response > 3.70

### Prompt Request the reported pIC50 associated with CN1CCN(CC(=O)Nc2cnc(OCc3c(Cl)cccc3Cl)cn2)CC1
### Response > 4.70

### Prompt Which pIC50 is listed for CC(C)(C)c1cc(NC(=O)Nc2ccc(F)c(COc3cnccn3)c2)n(-c2ccc(Cl)nn2)n1 ?
### Response > 5.70

### Prompt Name the recorded pIC50 for O=C(Nc1ccc(F)c(COc2cnccn2)c1)Oc1cccc(C(F)(F)F)c1 .
### Response > 4.70

### Prompt Request the reported pIC50 associated with O=C(Nc1ccc(F)c(COc2cnccn2)c1)c1ccc(=O)n(Cc2ccccc2)c1
### Response > 4.70

### Prompt Can you share its pIC50? I mean this molecule: Clc1cccc(Cl)c1COc1cnc(NCc2ccccc2)cn1
### Response > 4.70

### Prompt # query: pIC50 of entry O=C(Nc1ccc(F)c(COc2cnccn2)c1)c1nnc(-c2ccccc2)o1
### Response > 5.70

====

We begin with a simple list: items and their reported IC50.
Target: UniProt Q16539
Assay: p38 MAP Kinase Assay (33P incorporation into myelin basic protein, filter plate)
Format: biochemical
Conditions: Table 1; MKK6-activated p38, MBP substrate, 50 minutes

MOL_SMILES	ASSAY_SYSTEM	IC50
Cc1ccc2ccccc2c1COc1cccnc1N	UniProt Q16539	< 100 µM
Clc1cccc(Cl)c1COc1ccc(N2CCOCC2)nc1	UniProt Q16539	< 1000 µM

### Prompt Item Nc1ncccc1OCc1cccc(C(=O)NCC2CC2)c1 has what recorded IC50?
### Response < 1000 µM

### Prompt Which IC50 value is on record for Nc1ncccc1OCc1ccc(Cl)c(F)c1 ?
### Response < 200 µM

### Prompt I would be grateful if you could share the reported IC50 for Nc1ncccc1OCc1ccc(F)cc1F .
### Response < 1000 µM

### Prompt // lookup IC50 for CC(C)(C)c1cc(NC(=O)Nc2ccc(Cl)c(COc3cccnc3)c2)n(-c2ccccc2)n1
### Response < 2 µM

### Prompt Item CC(=O)Nc1ccc(Cl)c(COc2cccnc2)c1 has what recorded IC50?
### Response < 1000 µM

### Prompt Need IC50 of Nc1ncccc1OCc1c(F)cc(F)cc1F , thanks.
### Response < 1000 µM

### Prompt Reported IC50 for O=C1c2ccccc2CN1c1ccc(F)c(COc2cccnc2)c1 : what is it?
### Response < 1000 µM

### Prompt For the compound shown here, Nc1ncccc1OCc1ccccc1CS(=O)(=O)c1ccccc1 , give the reported IC50.
### Response < 1000 µM

### Prompt Given the entry Clc1cccc(Cl)c1COc1ccc(NCc2ccccc2)nc1 , report its measured IC50.
### Response < 200 µM

### Prompt Which IC50 is reported for this compound? O=C(Nc1cccc(COc2cccnc2)c1)c1ccccc1
### Response < 200 µM

### Prompt # get_value(readout='IC50', item= Nc1ncccc1OCc1cccc(-c2ccccc2)c1 )
### Response < 200 µM

### Prompt # IC50 lookup, item COc1ccccc1COc1cccnc1N
### Response < 1000 µM

### Prompt Report IC50 for Nc1ncccc1OCc1cc(NC(=O)c2ccccc2)ccc1Cl please.
### Response < 20 µM

### Prompt Would you mind telling me what IC50 value was observed for O=S(=O)(Nc1ccc(Cl)c(COc2cccnc2)c1)c1ccccc1 ?
### Response < 200 µM

### Prompt Field request: IC50 | item: O=C(Nc1ccc(Cl)c(COc2ccc(NCCO)nc2)c1)c1cc(F)cc(N2CCOCC2)c1
### Response < 2 µM
